Tested on: Rattus norvegicus
Test: Induction of blood pressure in vagotomized and ganglion-blocked rat at 250 ng/kg/min, iv measured at 30 mins
Format: functional
List of Activity values.

>  <Test smiles>
CC[C@H](C)[C@H](NC(=O)[C@@H]1CCCN1C(=O)[C@H](Cc1c[nH]cn1)NC(=O)[C@H]([C@@H](C)CC)N(C)C(=O)[C@H](Cc1ccc(O)cc1)NC(=O)[C@@H](NC(=O)[C@H](CCCN=C(N)N)NC(=O)CNC)C(C)C)C(=O)O

>  <Activity / mmHg>
22.8

$$$$
>  <Test smiles>
CC[C@H](C)[C@H](NC(=O)[C@H](Cc1ccc(O)cc1)NC(=O)[C@@H](NC(=O)[C@H](CCCNC(=N)N)NC(=O)CNC)C(C)C)C(=O)N[C@@H](Cc1cnc[nH]1)C(=O)N1CCC[C@H]1C(=O)N(C)[C@H](C(=O)O)[C@@H](C)CC

>  <Activity / mmHg>
32

$$$$

----------
Tested on: Rattus norvegicus
Assay: Induction of blood pressure in vagotomized and ganglion-blocked rat at 250 ng/kg/min, iv measured at 30 mins
Format: functional
Non-standard residues stand in square brackets, D forms with d. Residues, ends and D or L forms follow the SMILES beside them. Sar = CNCC(=O)O
Threshold 20 mmHg. Activity below it: TRUE. Activity at it or above: FALSE.

>  <Compound>
CC[C@H](C)[C@H](NC(=O)[C@H](Cc1ccc(O)cc1)NC(=O)[C@@H](NC(=O)[C@H](CCCNC(=N)N)NC(=O)CNC)C(C)C)C(=O)N[C@@H](Cc1cnc[nH]1)C(=O)N1CCC[C@H]1C(=O)N[C@@H](CCSC)C(=O)O (H-[Sar]RVYIHPM-OH)

>  <Group>
FALSE

$$$$
>  <Compound>
CC[C@H](C)[C@@H](C(=O)N[C@@H](Cc1cnc[nH]1)C(=O)N1CCC[C@H]1C(=O)N(C)[C@H](C(=O)O)[C@@H](C)CC)N(C)C(=O)[C@H](Cc1ccc(O)cc1)NC(=O)[C@@H](NC(=O)[C@H](CCCNC(=N)N)NC(=O)CNC)C(C)C

>  <Group>
TRUE

$$$$
>  <Compound>
CC[C@H](C)[C@H](NC(=O)[C@@H]1CCCN1C(=O)[C@H](Cc1cnc[nH]1)NC(=O)[C@@H](NC(=O)[C@H](Cc1ccc(O)cc1)N(C)C(=O)[C@@H](NC(=O)[C@H](CCCNC(=N)N)NC(=O)CNC)C(C)C)[C@@H](C)CC)C(=O)O

>  <Group>
TRUE

$$$$
>  <Compound>
CC[C@H](C)[C@H](NC(=O)[C@H](Cc1ccc(O)cc1)NC(=O)[C@@H](NC(=O)[C@H](CCCNC(=N)N)NC(=O)CNC)C(C)C)C(=O)N[C@@H](Cc1cnc[nH]1)C(=O)N1CCC[C@H]1C(=O)N[C@@H](CO)C(=O)O (H-[Sar]RVYIHPS-OH)

>  <Group>
TRUE

$$$$
>  <Compound>
CC[C@H](C)[C@H](NC(=O)[C@@H]1CCCN1C(=O)[C@H](Cc1cnc[nH]1)NC(=O)[C@@H](NC(=O)[C@H](Cc1ccc(O)cc1)NC(=O)[C@@H](NC(=O)[C@H](CCCNC(=N)N)NC(=O)[C@H](CC(=O)O)NC)C(C)C)[C@@H](C)CC)C(=O)O

>  <Group>
TRUE

$$$$

----------
Species on record: Felis catus
Assay: Agonist activity at angiotensin AT2 receptor in isolated cat adrenal medulla assessed as secretory activity relative to angiotensin 2
Format: tissue-based
Non-standard residues stand in square brackets, D forms with d. Residues, ends and D or L forms follow the SMILES beside them. Sar = CNCC(=O)O
Quick reference: Activity of the listed items.

>  <Compound>
CC[C@H](C)[C@H](NC(=O)[C@@H]1CCCN1C(=O)[C@H](Cc1cnc[nH]1)NC(=O)[C@@H](NC(=O)[C@H](Cc1ccc(O)cc1)NC(=O)[C@@H](NC(=O)[C@H](CCCNC(=N)N)NC(=O)[C@H](CC(=O)O)NC)C(C)C)[C@@H](C)CC)C(=O)O

>  <Activity>
1.01%

$$$$
>  <Compound>
CC[C@H](C)[C@H](NC(=O)[C@H](Cc1ccc(O)cc1)NC(=O)[C@@H](NC(=O)[C@H](CCCNC(=N)N)NC(=O)CNC)C(C)C)C(=O)N[C@@H](Cc1cnc[nH]1)C(=O)N1CCC[C@H]1C(=O)N[C@H](C(=O)O)[C@@H](C)OC

>  <Activity>
0.1%

$$$$
>  <Compound>
CC[C@H](C)[C@H](NC(=O)[C@H](Cc1ccc(O)cc1)NC(=O)[C@@H](NC(=O)[C@H](CCCNC(=N)N)NC(=O)CNC)C(C)C)C(=O)N[C@@H](Cc1cnc[nH]1)C(=O)N1CCC[C@H]1C(=O)N[C@@H](CCSC)C(=O)O (H-[Sar]RVYIHPM-OH)

>  <Activity>
< 0.01%

$$$$
>  <Compound>
CC[C@H](C)[C@H](NC(=O)[C@@H]1CCCN1C(=O)[C@H](Cc1c[nH]cn1)NC(=O)[C@H]([C@@H](C)CC)N(C)C(=O)[C@H](Cc1ccc(O)cc1)NC(=O)[C@@H](NC(=O)[C@H](CCCN=C(N)N)NC(=O)CNC)C(C)C)C(=O)O

>  <Activity>
0.01%

$$$$
>  <Compound>
CC[C@H](C)[C@H](NC(=O)[C@H](Cc1ccc(O)cc1)NC(=O)[C@@H](NC(=O)[C@H](CCCN=C(N)N)NC(=O)CNC)C(C)C)C(=O)N[C@@H](Cc1c[nH]cn1)C(=O)N1CCC[C@H]1C(=O)N[C@H](C(=O)O)[C@@H](C)O (H-[Sar]RVYIHPT-OH)

>  <Activity>
0%

$$$$
>  <Compound>
CC[C@H](C)[C@H](NC(=O)[C@@H]1CCCN1C(=O)[C@H](Cc1c[nH]cn1)NC(=O)[C@@H](NC(=O)[C@H](Cc1ccc(O)cc1)NC(=O)[C@@H](NC(=O)[C@H](CCCN=C(N)N)NC(=O)CNC)C(C)C)[C@@H](C)CC)C(=O)O

>  <Activity>
3%

$$$$

----------
Assay: Antagonist activity at angiotensin AT2 receptor in isolated cat adrenal medulla
Format: tissue-based, Felis catus

>  <Test smiles>
CC[C@H](C)[C@H](NC(=O)[C@H](Cc1ccc(O)cc1)NC(=O)[C@@H](NC(=O)[C@H](CCCNC(=N)N)NC(=O)CNC)C(C)C)C(=O)N[C@@H](Cc1cnc[nH]1)C(=O)N1CCC[C@H]1C(=O)N[C@H](C(=O)O)[C@@H](C)OC

>  <pA2>
7

$$$$
>  <Test smiles>
CC[C@H](C)[C@H](NC(=O)[C@@H]1CCCN1C(=O)[C@H](Cc1cnc[nH]1)NC(=O)[C@@H](NC(=O)[C@H](Cc1ccc(O)cc1)NC(=O)[C@@H](NC(=O)[C@H](CCCNC(=N)N)NC(=O)[C@H](CC(=O)O)NC)C(C)C)[C@@H](C)CC)C(=O)O

>  <pA2>
8.16

$$$$
